- STUDY_TARGET: Vps34 (PIK3C3 lipid kinase) (Homo sapiens)
- Sequence (Q8NEB9 whole entry, species assumed): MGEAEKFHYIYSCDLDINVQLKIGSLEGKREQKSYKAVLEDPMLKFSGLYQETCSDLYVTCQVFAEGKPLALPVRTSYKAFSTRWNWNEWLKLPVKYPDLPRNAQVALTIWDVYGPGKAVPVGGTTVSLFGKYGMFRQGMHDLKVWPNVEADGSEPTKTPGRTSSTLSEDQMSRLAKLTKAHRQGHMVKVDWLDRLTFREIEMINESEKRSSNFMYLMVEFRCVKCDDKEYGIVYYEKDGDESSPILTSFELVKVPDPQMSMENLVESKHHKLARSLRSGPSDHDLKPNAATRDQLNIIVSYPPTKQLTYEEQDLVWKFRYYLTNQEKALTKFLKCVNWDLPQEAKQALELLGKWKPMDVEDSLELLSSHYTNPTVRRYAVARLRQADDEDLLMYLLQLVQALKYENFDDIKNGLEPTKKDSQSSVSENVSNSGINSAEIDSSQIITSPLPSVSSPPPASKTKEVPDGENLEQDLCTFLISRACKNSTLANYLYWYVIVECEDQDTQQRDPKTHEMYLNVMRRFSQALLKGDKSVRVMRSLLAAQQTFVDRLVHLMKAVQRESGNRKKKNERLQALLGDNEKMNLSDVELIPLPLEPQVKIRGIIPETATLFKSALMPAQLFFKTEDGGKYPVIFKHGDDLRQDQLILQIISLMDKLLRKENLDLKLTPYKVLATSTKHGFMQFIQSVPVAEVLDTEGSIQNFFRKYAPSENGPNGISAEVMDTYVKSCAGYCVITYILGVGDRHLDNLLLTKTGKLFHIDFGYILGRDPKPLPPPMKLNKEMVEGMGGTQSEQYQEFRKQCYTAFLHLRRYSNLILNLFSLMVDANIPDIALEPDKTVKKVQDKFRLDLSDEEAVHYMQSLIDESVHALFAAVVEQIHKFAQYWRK
- ASSAY_DETAILS: Biochemical Vps34 lipid kinase assay (ADP-Glo)
- TEST_PARAMETERS: serial half-log dilution 10 μM to 0.3 nM; pIC50 = -log IC50 (M)
- Protocol: Biochemical Vps34 Lipid Kinase Assay A non-radiometric kinase assay (ADP-Glo™ Assay, Promega, Madison, Wi, USA) was used for measuring the kinase activity of the PIK3C3 lipid kinase. All kinase assays were performed in 96-well half-area microtiter plates in a 25 μl reaction volume. […] The reaction cocktails were incubated at 30° C. for 60 minutes. […] Signal was determined with a microplate luminescence reader (Victor, Perkin Elmer). […]
# maps each entry to its IC50
Lab book: enter the figure in M, no units written.

[[record]]
molecule = "CS(=O)(=O)N1CCNC(=O)CN2CCN(CC2)Cc2cccc(c2)Nc2nccc(n2)-c2ccc(nc2)C1"
scale_unit = "M"
quantitative_result = "1.48e-07"

[[record]]
molecule = "O=C1CN2CCN(Cc3cccc(c3)Nc3nccc(n3)-c3ccc(nc3)NCCCN1)C(CO)C2 (single isomer, unassigned) [Compound 47]"
scale_unit = "M"
quantitative_result = "8.32e-08"

[[record]]
molecule = "O=C1CN2CCN(CC2)Cc2cccc(c2)Nc2nccc(n2)-c2ccc(nc2)CN(C(=O)C2CC2)CCN1"
scale_unit = "M"
quantitative_result = "3.02e-07"


Then this molecule:
Look up IC50 for this molecule: Cc1cc2cc(c1)Nc1nccc(n1)-c1ccc(nc1)NCCCNC(=O)CN1CCN(CC1)C2 1.58e-07
